Cited source for all entries: PubChem BioAssay (NCATS)

assay: qHTS Assay for Lipid Storage Modulators (AID 1519); details: Drosophila S3 cells, BODIPY lipid droplet/cell ratio, laser cytometry; measured here: cell count channel max response; cells loaded with oleic acid
Results filed as inconclusive are left out.
// NB: equality with 10% counts as FALSE; only max response strictly below is TRUE

>  <smilesString>
O=C(Nc1cccc(F)c1)N1CCC2(CC1)CCN(C(=O)c1cnccn1)CC2

>  <category>
FALSE

$$$$
>  <smilesString>
CC(=O)NCCNc1ncncc1-c1ccc(N(C)C)cc1

>  <category>
FALSE

$$$$
>  <smilesString>
COc1cccc(Nc2ncc3nc(CCc4ccccc4)c(=O)n(C)c3n2)c1

>  <category>
FALSE

$$$$
>  <smilesString>
O=C(c1cc(C(F)(F)F)cc(C(F)(F)F)c1)N1CCC2(CC1)CN(c1ccccc1)C2

>  <category>
TRUE

$$$$
>  <smilesString>
CN1CCN(c2ncc3nc(-c4cc(F)cc(F)c4)c(=O)n(Cc4cccs4)c3n2)CC1

>  <category>
FALSE

$$$$
>  <smilesString>
c1ccc(Nc2cc(-c3ccoc3)ncn2)cc1

>  <category>
FALSE

$$$$
>  <smilesString>
O=C(O)C1CCN(c2ncnc3ccc(-c4ccccc4C(F)(F)F)cc23)CC1

>  <category>
FALSE

$$$$
>  <smilesString>
CCNc1ncc2nc(-c3ccccc3)c(=O)n(C[C@H]3CCCO3)c2n1

>  <category>
TRUE

$$$$
>  <smilesString>
O=c1c(-c2ccc(F)cc2)nc2cnc(Oc3ccccc3)nc2n1Cc1cccs1

>  <category>
TRUE

$$$$
>  <smilesString>
Cc1nc2cnc(Nc3ccccc3)nc2n(C)c1=O

>  <category>
TRUE

$$$$
>  <smilesString>
O=c1cnc2cnc(Oc3cccc(Cl)c3)nc2n1C[C@H]1CCCO1

>  <category>
FALSE

$$$$

* * *

assay: Stat Signaling Pathway (AID 446); conditions: ME-180 (cervical carcinoma) SIE beta-lactamase reporter, IL-6 stimulated, 5 h; at 7.69 µM (top of the series) unless noted;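 note: ME-180 cervical cancer cells given 40 pM IL-6 alongside compound; SIE-controlled beta-lactamase reporter measured as 460/530 nm FRET emission ratio; % is set by controls: 0 for no effect and ±100 for the full control effect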
Results filed as inconclusive are left out.
propertyMeasured: activity, negative = inhibition (%)

>  <smilesString>
CCNc1ncc2ncc(=O)n(Cc3cccs3)c2n1

>  <propertyMeasured>
activity, negative = inhibition

>  <result>
-24.4

$$$$
>  <smilesString>
Cc1noc(C)c1C(=O)N1CCC2(CCCN(Cc3nccs3)C2)CC1

>  <propertyMeasured>
activity, negative = inhibition

>  <result>
-1.5

$$$$
>  <smilesString>
COc1cccc(-c2cc(N(C)Cc3ccco3)ncn2)c1

>  <propertyMeasured>
activity, negative = inhibition

>  <result>
-2

$$$$
>  <smilesString>
Cc1nc2cnc(N(C)C)nc2n(C[C@H]2CCCO2)c1=O

>  <propertyMeasured>
activity, negative = inhibition

>  <result>
-0.622

$$$$
>  <smilesString>
COc1ccc(NC(=O)N2CCC3(CC2)CCN(C(=O)c2cnccn2)CC3)cc1

>  <propertyMeasured>
activity, negative = inhibition

>  <result>
0.353

$$$$
>  <smilesString>
Cc1ccccc1-c1cc(NCCN2CCOCC2)ncn1

>  <propertyMeasured>
activity, negative = inhibition

>  <result>
2.72

$$$$
>  <smilesString>
Cn1cccc1C(=O)N1CCC2(CC1)CCN(c1ccccc1)CC2

>  <propertyMeasured>
activity, negative = inhibition

>  <result>
-1.51

$$$$
>  <smilesString>
CN(C)c1ncc2nc(-c3cccc(C#N)c3)c(=O)n(CCC#N)c2n1

>  <propertyMeasured>
activity, negative = inhibition

>  <result>
-8.5

$$$$
>  <smilesString>
COCC(=O)N1CCC2(CC1)CCN(C(c1ccccc1)c1ccccc1)CC2

>  <propertyMeasured>
activity, negative = inhibition

>  <result>
1.17

$$$$
>  <smilesString>
CN(Cc1ccco1)c1ncncc1-c1cccc(C#N)c1

>  <propertyMeasured>
activity, negative = inhibition

>  <result>
7.25

$$$$
>  <smilesString>
COCCn1c(=O)c(-c2cn(C)c3ccccc23)nc2cnc(Oc3cccc(Cl)c3)nc21

>  <propertyMeasured>
activity, negative = inhibition

>  <result>
3.06

$$$$

* * *

assay: qHTS for Hypoxia signaling pathway (HIF-1) antagonists against the NCATS CANVASS Library (AID 1347374); conditions: HRE-bla ME-180 cells, HIF-1 beta-lactamase reporter, CoCl2; series mostly up to 38.3 µM; note: nearly all actives have a fitted effect of over 60% in size
Results filed as inconclusive are left out. Active and inactive are the calls of the source. The call rests on the fitted dose curve; in most records, active means well fitted inhibition curve with a large enough effect; inconclusive means small, poorly fitted or top-dose-only effect; inactive means no such curve, though single readings can be large or run the other way.
Labels: active, inactive

>  <compound>
CN1C(=O)C(=O)N2C(=C[C@]3(c4c[nH]c5ccccc45)c4ccccc4N[C@H]23)C1=O

>  <category>
inactive

$$$$
>  <compound>
COc1cc2c(cc1OC)[C@@H](c1ccc3c(c1)OCO3)C(C)[C@@H](C)C2=O (stereo partly drawn)

>  <category>
inactive

$$$$
>  <compound>
COc1ccc([C@@H]2c3cc4c(cc3C(=O)C(C)C2C)OCO4)cc1OC (stereo partly drawn)

>  <category>
inactive

$$$$
>  <compound>
C=CC(CCCCC)C1C(=O)NC(=O)C1C(=O)C1C2C(C)CC(C(=O)O)CC2CC1(O)C(=O)/C=C/C (stereo not drawn)

>  <category>
active

$$$$
>  <compound>
CC(C)=CCC[C@]1(C)[C@H]2CC(=O)[C@@]3(CO3)[C@@H]1C2

>  <category>
inactive

$$$$
>  <compound>
CC1(C)CC[C@]2(CO)CC[C@]3(C)C(=CCC4[C@@]5(C)CC[C@H](O)C(C)(C)C5CC[C@]43C)C2C1 (stereo partly drawn)

>  <category>
inactive

$$$$
>  <compound>
CN1CCc2cc3c(c4c2C1(C)C(=O)c1cc(O)ccc1-4)OCO3 (stereo not drawn)

>  <category>
active

$$$$
>  <compound>
COc1cc2oc3ccccc3c(=O)c2cc1OC

>  <category>
inactive

$$$$
>  <compound>
O=C1OC(CCO)c2cccc(O)c21 (stereo not drawn)

>  <category>
inactive

$$$$
>  <compound>
CC1=C2CC[C@]3(C)[C@H](CC=C4[C@@H]5CC(C)(C)CC[C@@H]5C(=O)[C@H](O)[C@]43C)[C@@]2(C)C=C(O)C1=O

>  <category>
active

$$$$
>  <compound>
C/C1=C/[C@@H](C)[C@H](O)C/C=C/CC/C=C/C(=O)O[C@@H]1[C@H](C)C(=O)CCCC1CC(=O)NC(=O)C1

>  <category>
active

$$$$
>  <compound>
Oc1ccc(C2Oc3cc(O)c4c(c3[C@@H]2c2cc(O)cc(O)c2)[C@H]2C(c3ccc(O)cc3)c3c(O)cc5c(c3[C@H]2C4c2ccc(O)cc2)[C@H](c2cc(O)cc(O)c2)C(c2ccc(O)cc2)O5)cc1 (stereo partly drawn)

>  <category>
inactive

$$$$
>  <compound>
O=C1CC(c2ccc(O)cc2)Oc2cc(O)ccc21 (stereo not drawn)

>  <category>
inactive

$$$$
>  <compound>
CC(CCC[C@]1(C)C(=O)C=C[C@@]23C[C@]4(C)O[C@@H](C[C@@H]4[C@H]2O)C31)C(=O)O (stereo partly drawn)

>  <category>
inactive

$$$$
>  <compound>
COc1c(O)cc(O)c2c(=O)cc(-c3ccccc3)oc12

>  <category>
active

$$$$
>  <compound>
COC1C(C)OC(OCC23C[C@@H]4[C@H](C)CC[C@H]4C4(C=O)CC2C=C(C(C)C)C34C(=O)O)[C@@H](O)[C@H]1O (stereo partly drawn)

>  <category>
inactive

$$$$
>  <compound>
COc1ccc(-c2oc3cc(OC)cc(OC)c3c(=O)c2O)cc1

>  <category>
active

$$$$
>  <compound>
C=C[C@](Cl)(CBr)CCC=C(C)C

>  <category>
inactive

$$$$
